target system: protein kinase B (PKB)
assay: cell-based or functional assay
Square brackets hold non-standard residues; d marks the D form. * marks the point of attachment. Cholesteryloxycarbonyl = CC(C)CCC[C@@H](C)[C@H]1CC[C@H]2[C@@H]3CC=C4C[C@@H](OC(=O)*)CC[C@]4(C)[C@H]3CC[C@]12C; hLeu = CC(C)CC[C@H](N)C(=O)O; Nva = CCC[C@H](N)C(=O)O; Dap = NC[C@H](N)C(=O)O
outcome measure: IC50, in vitro kinase assay PKB (nM)
I only need the number, in nM, no unit after it.

Sure, the documented IC50, in vitro kinase assay PKB for Cholesteryloxycarbonyl-[dK][dK][dK][dK][dK]RPR[Nva]Y[Dap][hLeu]-NH2 (SMILES CCC[C@H](NC(=O)[C@H](CCCNC(=N)N)NC(=O)[C@@H]1CCCN1C(=O)[C@H](CCCNC(=N)N)NC(=O)[C@@H](CCCCN)NC(=O)[C@@H](CCCCN)NC(=O)[C@@H](CCCCN)NC(=O)[C@@H](CCCCN)NC(=O)[C@@H](CCCCN)NC(=O)O[C@H]1CC[C@@]2(C)C(=CC[C@H]3[C@@H]4CC[C@H]([C@H](C)CCCC(C)C)[C@@]4(C)CC[C@@H]32)C1)C(=O)N[C@@H](Cc1ccc(O)cc1)C(=O)N[C@@H](CN)C(=O)N[C@@H](CCC(C)C)C(N)=O) [PTR 6324] is 100

Just so you know, measured IC50, in vitro kinase assay PKB for Cholesteryloxycarbonyl-[dK][dK][dK][dK]RPR[Nva]Y[Dap][hLeu]-NH2 (SMILES CCC[C@H](NC(=O)[C@H](CCCNC(=N)N)NC(=O)[C@@H]1CCCN1C(=O)[C@H](CCCNC(=N)N)NC(=O)[C@@H](CCCCN)NC(=O)[C@@H](CCCCN)NC(=O)[C@@H](CCCCN)NC(=O)[C@@H](CCCCN)NC(=O)O[C@H]1CC[C@@]2(C)C(=CC[C@H]3[C@@H]4CC[C@H]([C@H](C)CCCC(C)C)[C@@]4(C)CC[C@@H]32)C1)C(=O)N[C@@H](Cc1ccc(O)cc1)C(=O)N[C@@H](CN)C(=O)N[C@@H](CCC(C)C)C(N)=O) [PTR 6322] came out at 100

Recorded result, Cholesteryloxycarbonyl-[dK][dK][dK]KPR[Nva]Y[Dap][hLeu]-NH2 (SMILES CCC[C@H](NC(=O)[C@H](CCCNC(=N)N)NC(=O)[C@@H]1CCCN1C(=O)[C@H](CCCCN)NC(=O)[C@@H](CCCCN)NC(=O)[C@@H](CCCCN)NC(=O)[C@@H](CCCCN)NC(=O)O[C@H]1CC[C@@]2(C)C(=CC[C@H]3[C@@H]4CC[C@H]([C@H](C)CCCC(C)C)[C@@]4(C)CC[C@@H]32)C1)C(=O)N[C@@H](Cc1ccc(O)cc1)C(=O)N[C@@H](CN)C(=O)N[C@@H](CCC(C)C)C(N)=O) [PTR 6400] , IC50, in vitro kinase assay PKB: 300

Looking up {Vitamin E‑CO‑(CH2)2‑CO}-[dK][dK][dK]RPR[Nva]Y[Dap][hLeu]-NH2 [PTR 6396] , I found its IC50, in vitro kinase assay PKB recorded as 200
